Target: canine FcRn (FcRn large subunit with canine beta-2-microglobulin) (canine)
Experiment: SPR pH 5.5, SASA-Fc captured on BSA, FcRn 100-800 nM
kon: recorded values
Expressed in M⁻¹ s⁻¹, but write only the number.

Consider the following illustrative entries.
| Binder | kon / M⁻¹ s⁻¹ |
| --- | --- |
| canine IgGB Fc (CH2-CH3) N434Y with N-terminal SASA tag (Fc fusion, part only; not given: SASA tag, not shown: another chain or arm of the molecule; small tags and cut ends) Fc: APEMLGGPSVFIFPPKPKDTLLIARTPEVTCVVVDLDPEDPEVQISWFVDGKQMQTAKTQPREEQFNGTYRVVSVLPIGHQDWLKGKQFTCKVNNKALPSPIERTISKARGQAHQPSVYVLPPSREELSKNTVSLTCLIKDFFPPDIDVEWQSNGQQEPESKYRTTPPQLDEDGSYFLYSKLSVDKSRWQRGDTFICAVMHEALHYHYTQESLSHSPGK | 520000 |
| canine IgGB Fc (CH2-CH3) A426H with N-terminal SASA tag (Fc fusion, part only; not given: SASA tag, not shown: another chain or arm of the molecule; small tags and cut ends) Fc: APEMLGGPSVFIFPPKPKDTLLIARTPEVTCVVVDLDPEDPEVQISWFVDGKQMQTAKTQPREEQFNGTYRVVSVLPIGHQDWLKGKQFTCKVNNKALPSPIERTISKARGQAHQPSVYVLPPSREELSKNTVSLTCLIKDFFPPDIDVEWQSNGQQEPESKYRTTPPQLDEDGSYFLYSKLSVDKSRWQRGDTFICHVMHEALHNHYTQESLSHSPGK | 308000 |

Please report the recorded kon for canine IgGB Fc (CH2-CH3) N434R with N-terminal SASA tag (Fc fusion, part only; not given: SASA tag, not shown: another chain or arm of the molecule; small tags and cut ends) Fc: APEMLGGPSVFIFPPKPKDTLLIARTPEVTCVVVDLDPEDPEVQISWFVDGKQMQTAKTQPREEQFNGTYRVVSVLPIGHQDWLKGKQFTCKVNNKALPSPIERTISKARGQAHQPSVYVLPPSREELSKNTVSLTCLIKDFFPPDIDVEWQSNGQQEPESKYRTTPPQLDEDGSYFLYSKLSVDKSRWQRGDTFICAVMHEALHRHYTQESLSHSPGK . 440000

Sourced from patent US20240327497A1
